Read-out: Cytochrome P450 (CYP24A1), CYP24A1 (gene 1591)
Assay: LTEA_HepaRG_CYP24A1: Life Technologies and Expression Analysis (LTEA) Assay for Cytochrome P450 (CYP24A1) using HepaRG (AID 2283478)
Settings: mRNA level, 48 h; actives raise or lower the signal
Method: LTEA_HepaRG is a cell based, multiplexed-readout assay that uses HepaRG, a human liver cell line, with measurements taken at 48 hours after chemical dosing on a 96-well plate.LTEA_HepaRG_CYP24A1 is one of 102 assay component(s) measured in the LTEA HepaRG cell culture assay. It is a marker of NR mediated metabolism.Data from the assay component LTEA_HepaRG_CYP24A1 was analyzed into 1 endpoint. […]
Active and inactive are the calls of the source. How the source made its calls: active means hit-call score of the fitted dose curve at least 0.9, where 1 is the maximum; inactive means score below 0.9.
Your reply should match one of these outcome classes. true (1) for active, false (0) for inactive

Call for entry `CC[C@H]1CC[C@H](NCc2cc3c(cc2OC)[C@H]2C[C@H]2C(=O)N3C)[C@H](c2ccccc2)N1` :
false (0)

How was `CCCCCCc1ccc(O)cc1O` classified in this test?
false (0)

Field: outcome | Entry: `COC(=O)c1ccccc1O`
false (0)

Hi, sorry to bother you, what did the test record for `CCOCCO` ?
false (0)

Dear all, I need the recorded test outcome for CC(O)CN(CCN(CC(C)O)CC(C)O)CC(C)O (configuration not stated) , thank you.
false (0)

Recorded test outcome, item `Nc1ccc(Nc2ccccc2)cc1`
false (0)

Tell me the assay call for `C[C@](N)(Cc1ccc(O)c(O)c1)C(=O)O` please.
false (0)

Could you kindly confirm the outcome this assay logged for `CC(C)=CCCC(C)=CC=O` ?
false (0)

Outcome logged for O=C(O)CC(O)C(=O)O (configuration not stated) in this assay:
false (0)

// param item: `COC(=O)c1c(Cl)c(Cl)c(C(=O)OC)c(Cl)c1Cl` ; yields the recorded call
false (0)

Please indicate how the test categorized CNS(=O)(=O)c1cc(C(=O)N2CCC(CCN3C4CCC3CC(n3c(C)nc5ccccc53)C4)(c3cccc(F)c3)CC2)c(Cl)cc1F (configuration not stated) .
false (0)

Could you please tell me the result logged for `CCCCCCCCO` in this assay?
false (0)

Test call for this compound, please: O=c1n(CC2CO2)c(=O)n(CC2CO2)c(=O)n1CC1CO1 (configuration not stated)
false (0)

Please state the recorded outcome for this compound: `Cc1[nH]cnc1C[C@H]1CCc2c(C)c3ccccc3n2C1=O`
false (0)

I would be grateful if you could indicate the recorded call for `CC(C)CCCCCCOC(=O)c1ccc(C(=O)OCCCCCCC(C)C)c(C(=O)OCCCCCCC(C)C)c1` .
false (0)

Outcome logged for `O=C(O)c1cccc(N(Cc2cccnc2)c2ccc(OC(F)F)c(OC(F)F)c2)c1` in this assay:
true (1)

Hey, what did the test say about `O=C(O)CCN(C1(C(=O)NO)CCCC1)S(=O)(=O)c1ccc(Oc2ccc(F)cc2)cc1` ?
false (0)

Hi team, can someone confirm the assay call for `CCOc1cccc(-n2cc(C(=O)N3CCN(c4cc(C(=O)O)c5ccccc5c4)CC3)nc2-c2ccc(C)cc2)c1` ?
false (0)

Outcome? `CNCc1ccc(NC(=O)c2c[nH]c3c2C(=O)CCC3)cc1`
false (0)

Recorded test outcome, item `O=C(NS(=O)(=O)/C=C/c1ccccc1)c1ccc(F)cc1Cl`
false (0)

Hi, sorry to bother you, what did the test record for `CC[C@H]1OC(=O)[C@H](C)[C@@H](O[C@H]2C[C@@](C)(OC)[C@@H](O)[C@H](C)O2)[C@H](C)[C@@H](O[C@@H]2O[C@H](C)C[C@H](N(C)C)[C@H]2O)[C@](C)(O)C[C@@H](C)C(=O)[C@H](C)[C@@H](O)[C@]1(C)O` ?
false (0)

# lookup: test call for `CCn1nc(Cc2ccccc2)cc1C1CCN(C[C@H]2C[C@H](N(C)[C@@H](C(=O)O)C(C)C)C[C@@H]2c2cccc(F)c2)CC1`
false (0)

What did the test return for `CCCC(=O)OCC` ?
false (0)

Outcome? CCCCC(CC)COC(=O)c1ccc(C(=O)OCC(CC)CCCC)cc1 (configuration not stated)
false (0)

Please indicate how the test categorized `Cc1ccc(C)c(O)c1` .
false (0)

Which outcome was entered for the compound `O=C(OC[C@H]1O[C@@H](OC(=O)c2cc(O)c(O)c(OC(=O)c3cc(O)c(O)c(O)c3)c2)[C@H](OC(=O)c2cc(O)c(O)c(OC(=O)c3cc(O)c(O)c(O)c3)c2)[C@@H](OC(=O)c2cc(O)c(O)c(OC(=O)c3cc(O)c(O)c(O)c3)c2)[C@@H]1OC(=O)c1cc(O)c(O)c(OC(=O)c2cc(O)c(O)c(O)c2)c1)c1cc(O)c(O)c(OC(=O)c2cc(O)c(O)c(O)c2)c1` in this test?
false (0)

Could you please tell me the result logged for `COc1cccc(-c2ccc(/C=C\CN3CCCCCC3)cc2Cl)c1` in this assay?
false (0)

Tell me the recorded outcome of this test for `O=C(O)c1cccc(Oc2ccccc2)c1` .
false (0)

How was O=c1[nH]c2ccc(S(=O)CCN3CCC(Cc4ccc(F)cc4)CC3)cc2o1 (configuration not stated) classified in this test?
false (0)

Short answer needed: outcome of this test for `Nc1nc2ncc(CNc3ccc(C(=O)N[C@@H](CCC(=O)O)C(=O)O)cc3)nc2c(=O)[nH]1` ?
false (0)

Outcome logged for `CCc1cc(SCc2sc(-c3ccc(C(F)(F)F)cc3)nc2CN2CCN(c3ccc(OC)cc3)CC2)ccc1OCC(=O)O` in this assay:
false (0)

Name the outcome recorded for `CCCCCCCCCCCCc1ccccc1` in the assay.
false (0)

* * *

assay: BSK_4H_Eotaxin3: BioMAP Diversity Plus: 4H Assay for Eotaxin 3 Biomarker Activity (AID 2283000); settings: primary human endothelial cells (HUVEC); actives raise or lower the signal
Activity calls are given as the source filed them. Rule for the calls: active = hit-call score of the fitted dose curve at least 0.9, where 1 is the maximum; inactive = score below 0.9.
Readout Name: AC50

# annotated cases, reported AC50 shown
Structure As Smiles	Measurement
Cn1cnc([N+](=O)[O-])c1Sc1ncnc2nc[nH]c12	inactive
CC(=O)c1ccc2c(c1)[C@H](NC(=O)c1ccc(F)cc1)[C@@H](O)C(C)(C)O2	inactive
COC(=O)c1c(Cl)c(Cl)c(C(=O)OC)c(Cl)c1Cl	inactive
CCOCCO	inactive

Turning to the following compound.
Requested field: AC50. Item: `O=C(OC[C@H]1O[C@@H](OC(=O)c2cc(O)c(O)c(OC(=O)c3cc(O)c(O)c(O)c3)c2)[C@H](OC(=O)c2cc(O)c(O)c(OC(=O)c3cc(O)c(O)c(O)c3)c2)[C@@H](OC(=O)c2cc(O)c(O)c(OC(=O)c3cc(O)c(O)c(O)c3)c2)[C@@H]1OC(=O)c1cc(O)c(O)c(OC(=O)c2cc(O)c(O)c(O)c2)c1)c1cc(O)c(O)c(OC(=O)c2cc(O)c(O)c(O)c2)c1`
8.95 µM (active)

* * *

test: ACEA_AR_agonist_AUC_viability: ACEA Biosciences xCELLigence Real-Time Cell Analysis on Androgen Receptor Agonism for Viability (AID 2283775)
Results filed as inconclusive are left out. Activity calls are given as the source filed them. The calls were made as follows: active = hit-call score of the fitted dose curve at least 0.9, where 1 is the maximum; inconclusive = response in the unintended direction; inactive = score below 0.9.
Allowed answers: class 1 for active, class 0 for inactive

Could you kindly confirm the outcome this assay logged for `Nc1ccc(Nc2ccccc2)cc1` ?
class 1

# fetch the recorded call for `COc1ccc(/C=C/S(=O)(=O)NC(=O)c2ccc(C)cc2Cl)cc1` here
class 1

Lab log entry: CC/C(=C\C(=N/O)C(N)=O)C(C)[N+](=O)[O-] (configuration not stated) — outcome as called in the assay?
class 0

Recorded test call requested for `CCCCCCCCCCCCCCCO`
class 1

Test call, this compound: `CCCN(C1CCN(C(=O)C2CCNCC2)CC1)[C@@H]1CCc2ccc(OC)cc2C1`
class 1

For O=C(O)CC(O)C(=O)O (configuration not stated) , which call appears in the assay record?
class 0

Hey, what did the test say about `O=C(O)c1cccc(N(Cc2cccnc2)c2ccc(OC(F)F)c(OC(F)F)c2)c1` ?
class 1

Recorded test outcome, item `Nc1nc2ncc(CNc3ccc(C(=O)N[C@@H](CCC(=O)O)C(=O)O)cc3)nc2c(=O)[nH]1`
class 0

Status in this test for Fc1ccccc1[C@@H](F)COC1CCC(Nc2ncnc3[nH]ncc23)CC1 (some centres not stated) ?
class 1

Status in this test for CC(C)CC(C)(O)C#CC(C)(O)CC(C)C (configuration not stated) ?
class 0

Could you check what this test reported for `CCN(C(=O)c1cc(C)cc(OC[C@H](C)Nc2ccncc2)c1)C(C)C` ?
class 1

Please indicate how the test categorized O=C1OC(=O)C2C3C=CC(C3)C12 (configuration not stated) .
class 0

* * *

read-out: Tissue plasminogen activator (tPA), PLAT (gene 5327); experiment: BSK_BE3C_tPA: BioMAP Diversity Plus: BE3C Assay for Tissue plasminogen activator (tPA) Biomarker Activity (AID 2283041); conditions: primary human bronchial epithelial cells; actives raise or lower the signal;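 on outcome: tPA level quantified by ELISA one day after compound addition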
Activity calls are given as the source filed them. The calls were made as follows: active = hit-call score of the fitted dose curve at least 0.9, where 1 is the maximum; inactive = score below 0.9.
In this exercise, the only acceptable responses are T for active, F for inactive

Record lookup: outcome of this test for `CCC(C)(C)C(=O)O[C@H]1C[C@@H](C)C=C2C=C[C@H](C)[C@H](CC[C@@H]3C[C@@H](O)CC(=O)O3)[C@H]21` ?
T

Hi, sorry to bother you, what did the test record for `CC[C@H](C)C(=O)O[C@H]1C[C@@H](C)C=C2C=C[C@H](C)[C@H](CC[C@@H]3C[C@@H](O)CC(=O)O3)[C@H]21` ?
T

What outcome does the record of this test show for `O=C(O)c1cccc(N(Cc2cccnc2)c2ccc(OC(F)F)c(OC(F)F)c2)c1` ?
F

Identify the outcome logged in this assay for the molecule shown: `CC(C)=CCC/C(C)=C\CO`
F

Status in this test for `CC(C)c1cccc(C(C)C)c1N1C(=O)c2ccc(O)cc2C1=O` ?
T

Entry `COCCOc1cc2cc(C(=O)NC3CCN(C(C)C)CC3)n(CC(=O)Nc3ccc(Cl)cn3)c2cn1` : call = ?
F

What classification did O=C1OC(=O)C2C3C=CC(C3)C12 (stereo not given) end up with in this test?
F

Could you check what this test reported for `CC(C)CCCCCCCOC(=O)CCCCC(=O)OCCCCCCCC(C)C` ?
F

Please let me know the test result on file for COc1ccc(-n2nc(C(F)F)cc2-c2ccc(S(C)=O)cc2)cc1 (stereo not given) .
F

Please let me know the test result on file for `C=CC(=C)CCC=C(C)C` .
F
